assay: BET inhibitor-based combinations targeting novel dependencies in MECOM-rearranged (r) AML: AML-194 cell line (AID 2202237; also: nearly all actives have a fitted effect of over 40% in size); details: AML-194 (MECOM-r AML) viability, CellTiter-Glo, 48 h; series mostly up to 46 µM
Results filed as inconclusive are left out. Active and inactive are the calls of the source. Calls follow the shape of the dose curve; as a rule, active = well fitted inhibition curve with a large enough effect; inconclusive = small, poorly fitted or top-dose-only effect; inactive = flat fitted curve, though single readings scatter.
Give your call using only these classes: 1 (yes) (active), 0 (no) (inactive)

Req: Write down the call the test reported for this molecule. Item: CC1CNc2c(cccc2S(=O)(=O)N[C@@H](CCCN=C(N)N)C(=O)N2CC[C@@H](C)C[C@@H]2C(=O)O)C1 (some centres undefined)
Resp: 0 (no)

Req: # outcome recorded in this test, key = COc1cc(CCc2cc(NC(=O)c3ccc(N4C[C@@H](C)N[C@@H](C)C4)cc3)n[nH]2)cc(OC)c1
Resp: 1 (yes)

Req: State the result this test recorded for O=C(O)CC1CCC(c2ccc(-c3ccc(Nc4ccc(C(F)(F)F)nc4)cn3)cc2)CC1 (centres undefined) .
Resp: 0 (no)

Req: // outcome(item) with item = CNC(=O)c1cc(Oc2ccc3nc(N[C@@H]4CCCC[C@H]4O)sc3c2)ccn1
Resp: 0 (no)
